# System: MV-4-11 cells
# measurement_description: Cell viability in MV-4-11 cells (CellTiter Glo2)
# Format: cell-based
# condition_notes: Homo sapiens, MV4-11, 96 h, 8-point dose response, 4 days, CellTiter Glo2 (Table E1), read-out: MV-4-11 IC50
pIC50: −log10 of the molar value.
assay_endpoint: pIC50

INSERT INTO assay_data (chemical_smiles, value) VALUES
  ('CCC(=O)N(C)c1ccc(-c2ccc(C(=O)NCc3ccc(OC)nc3)cn2)cc1', 4.86),
  ('CC(=O)N(CC(C)C)c1ccc(-c2ccc(C(=O)NCc3cccnc3)cc2)cc1', 7.23),
  ('CC(=O)N(CCNC(=O)OC(C)(C)C)c1ccc(-c2ccc(C(=O)NCc3cccnc3)cn2)cc1', 6.16),
  ('CCN(C(C)=O)c1ccc(-c2ccc(C(=O)NCc3cccnc3C)cn2)cc1Cl', 5.74),
  ('CCCCN(C(C)=O)c1ccc(-c2ccc(C(=O)NCc3cccnc3)cn2)cc1', 6.90),
  ('CCC(=O)N(CCNC(=O)OC(C)(C)C)c1ccc(-c2ccc(C(=O)NCc3cccnc3)cc2)cc1', 6.98),
  ('CCOC(=O)N(C)c1ccc(-c2ccc(C(=O)NCc3cccnc3)cn2)cc1', 5.50),
  ('CCC(=O)N(C)c1ccc(-c2ccc(C(=O)Nc3nc(C)cs3)cn2)cc1', 5.54),
  ('CC(=O)N(C)c1ccc(-c2ccc(C(=O)NCc3cccnc3F)cn2)cc1C', 4.86),
  ('CCC(=O)N(C)c1ccc(-c2ccc(C(=O)NCc3cccnc3C)cn2)cc1', 5.21);

I. CC(=O)N(C)Cc1ccc(-c2ccc(C(=O)NCc3cccnc3)nc2)cc1
II. CCc1cc(-c2ccc(C(=O)NCc3cccnc3C)cn2)ccc1N(C)C(C)=O
Among I and II , which shows a numerically higher pIC50 result? Your choice should be expressed through its label.
II

I. CC(=O)N(CC(C)C)c1ccc(-c2ccc(C(=O)NCc3cccnc3)cn2)cc1
II. CCC(=O)N(C)c1ccc(-c2ccc(C(=O)Nc3cccnc3)cn2)cc1
Among I and II , which shows a numerically higher pIC50 result? Your choice should be expressed through its label.
I

* * *

# target_entity: NAMPT (Homo sapiens, UniProt P43490)
# Construct: purchased Abcam ab221819
# Sequence (P43490 whole entry): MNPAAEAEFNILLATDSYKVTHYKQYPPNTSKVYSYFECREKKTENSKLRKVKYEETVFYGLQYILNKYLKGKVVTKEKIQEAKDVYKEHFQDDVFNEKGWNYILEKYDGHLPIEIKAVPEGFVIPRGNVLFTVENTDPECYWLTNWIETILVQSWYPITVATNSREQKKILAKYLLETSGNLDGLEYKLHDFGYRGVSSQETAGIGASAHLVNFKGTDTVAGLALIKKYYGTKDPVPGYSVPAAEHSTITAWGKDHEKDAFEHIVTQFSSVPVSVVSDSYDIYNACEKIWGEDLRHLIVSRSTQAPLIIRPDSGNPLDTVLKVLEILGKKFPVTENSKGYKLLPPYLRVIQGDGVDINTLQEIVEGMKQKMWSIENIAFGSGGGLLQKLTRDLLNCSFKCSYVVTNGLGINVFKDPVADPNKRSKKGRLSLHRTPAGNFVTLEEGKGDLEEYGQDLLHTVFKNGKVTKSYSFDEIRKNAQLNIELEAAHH
# measurement_description: NAMPT Activity Assay (Abcam #ab221819)
# Assay type: biochemical
# condition_notes: purified NAMPT, two-step reaction, OD450 nm; percent inhibition vs no drug; compound concentration not stated
assay_endpoint: NAMPT Inhibition Code

INSERT INTO assay_data (chemical_smiles, target_entity, assay_endpoint, value) VALUES
  ('CCC(=O)N(C)c1ccc(-c2ccc(C(=O)NCc3ccc(NCCN)nc3)cn2)cc1C', 'NAMPT (Homo sapiens, UniProt P43490)', 'NAMPT Inhibition Code', 'A (A = <33% inhibition)'),
  ('CCOC(=O)NCCN(C(C)=O)c1ccc(-c2ccc(C(=O)NCc3cccnc3C)cn2)cc1C', 'NAMPT (Homo sapiens, UniProt P43490)', 'NAMPT Inhibition Code', 'A (A = <33% inhibition)'),
  ('CC(=O)Nc1ccc(-c2ccc(C(=O)N(C)Cc3cccnc3C)cn2)cc1C#N', 'NAMPT (Homo sapiens, UniProt P43490)', 'NAMPT Inhibition Code', 'A (A = <33% inhibition)'),
  ('CC(=O)N(CC1CC1)c1ccc(-c2ccc(C(=O)NCc3ccc(F)nc3)cn2)cc1Cl', 'NAMPT (Homo sapiens, UniProt P43490)', 'NAMPT Inhibition Code', 'C (C = ≥66% inhibition)'),
  ('CC(=O)N(CCNC(=O)OC(C)(C)C)c1ccc(-c2ccc(C(=O)NCc3cccnc3)cn2)cc1', 'NAMPT (Homo sapiens, UniProt P43490)', 'NAMPT Inhibition Code', 'A (A = <33% inhibition)'),
  ('CCC(=O)N(C)c1ccc(-c2ccc(C(=O)NCc3ccc(F)nc3)cn2)cc1', 'NAMPT (Homo sapiens, UniProt P43490)', 'NAMPT Inhibition Code', 'A (A = <33% inhibition)'),
  ('CC(=O)N(CCC#N)c1ccc(-c2ccc(C(=O)NCc3cccnc3)cn2)cc1', 'NAMPT (Homo sapiens, UniProt P43490)', 'NAMPT Inhibition Code', 'A (A = <33% inhibition)'),
  ('CC(=O)N(CC1CC1)c1ccc(-c2ccc(C(=O)NCc3cccnc3)cn2)cc1Cl', 'NAMPT (Homo sapiens, UniProt P43490)', 'NAMPT Inhibition Code', 'C (C = ≥66% inhibition)');

Write down the reported NAMPT Inhibition Code of CCC(=O)N(C)c1ccc(-c2ccc(C(=O)NCc3cccnc3C)cn2)cc1 , test system: NAMPT (Homo sapiens, UniProt P43490).
A (A = <33% inhibition)

Repeat with CC(=O)N(CC1CC1)c1ccc(-c2ccc(C(=O)Nc3ccc4nccn4c3)cn2)cc1Cl
C (C = ≥66% inhibition)

Repeat with CCC(=O)N(CC(C)C)c1ccc(-c2ccc(C(=O)NCc3cccnc3)cn2)cc1
C (C = ≥66% inhibition)

* * *

# System: MV-4-11 cells
# measurement_description: Cell viability in MV-4-11 cells (CellTiter Glo2)
# Assay type: cell-based
# condition_notes: Homo sapiens, MV4-11, 96 h, 8-point dose response, 4 days, CellTiter Glo2 (Table E1), read-out: MV-4-11 IC50
assay_endpoint: IC50 (µM)

Some solved entries appear below for comparison.
INSERT INTO measurements (chemical_smiles, unit_symbol, value) VALUES
  ('CCC(=O)N(C)c1ccc(-c2ccc(C(=O)NCc3cccnc3Cl)cn2)cc1', 'µM', 6.11),
  ('CCC(=O)N(C)c1ccc(-c2ccc(C(=O)NCc3ccc(Cl)nc3)cn2)cc1', 'µM', 6.56),
  ('CC(C)CN(CC(C)C)c1ccc(-c2ccc(C(=O)NCc3cccnc3)cc2)cc1', 'µM', 0.817);

1. CC(=O)N(CC1CC(F)(F)C1)c1ccc(-c2ccc(C(=O)NCc3cccnc3)cn2)cc1
2. CCOC(=O)N(C)c1ccc(-c2ccc(C(=O)NCc3cccnc3)nc2)cc1
Among 1 and 2 , which shows a numerically higher IC50 result? Your choice should be expressed through its label.
2
(2: 6.08 µM, 1: 0.0825 µM)

* * *

# target_entity: NAMPT (Homo sapiens)
# Construct: purchased Abcam ab221819
# measurement_description: NAMPT Activity Assay (Abcam #ab221819)
# Assay type: biochemical
# condition_notes: purified NAMPT, two-step reaction, OD450 nm; percent inhibition vs no drug; compound concentration not stated
assay_endpoint: NAMPT Inhibition Code

INSERT INTO assay_data (molecule, assay_endpoint, value) VALUES
  ('Cc1cc(-c2ccc(C(=O)NCc3cccnc3C)cn2)ccc1N(C)C(=O)CC#N [Compound I-492]', 'NAMPT Inhibition Code', 'A (A = <33% inhibition)'),
  ('CC(=O)N(CC1CC(F)(F)C1)c1ccc(-c2ccc(C(=O)NCc3cccnc3)cn2)cc1Cl [Compound I-603]', 'NAMPT Inhibition Code', 'C (C = ≥66% inhibition)'),
  ('CC(=O)N(CC1CC1)c1ccc(-c2ccc(C(=O)NCc3ccc(N)nc3)cn2)cc1Cl [Compound I-677]', 'NAMPT Inhibition Code', 'C (C = ≥66% inhibition)'),
  ('CC(=O)N(CC(C)C)c1ccc(-c2ccc(C(=O)NCc3cccnc3C)cn2)cc1C [Compound I-454]', 'NAMPT Inhibition Code', 'A (A = <33% inhibition)'),
  ('CCC(=O)N(C)c1ccc(-c2ccc(C(=O)NCc3cccnc3)cn2)cc1 [Compound I-331]', 'NAMPT Inhibition Code', 'A (A = <33% inhibition)'),
  ('CCN(C(C)=O)c1ccc(-c2ccc(C(=O)NCc3cccnc3C)cn2)cc1Cl [Compound I-444]', 'NAMPT Inhibition Code', 'A (A = <33% inhibition)'),
  ('CCCN(C(C)=O)c1ccc(-c2ccc(C(=O)NCc3cccnc3)cn2)cc1Cl [Compound I-606]', 'NAMPT Inhibition Code', 'C (C = ≥66% inhibition)'),
  ('CC(=O)N(CC1CC1)c1ccc(-c2ccc(C(=O)NCc3cccnc3F)cn2)cc1Cl [Compound I-685]', 'NAMPT Inhibition Code', 'C (C = ≥66% inhibition)'),
  ('CC(=O)N(CC1CC1)c1ccc(-c2ccc(C(=O)NCc3ccc(C)nc3C)cn2)cc1C [Compound I-489]', 'NAMPT Inhibition Code', 'A (A = <33% inhibition)'),
  ('CC(=O)N(C)c1ccc(-c2ccc(C(=O)NCc3cccnc3)cn2)cc1C [Compound I-425]', 'NAMPT Inhibition Code', 'A (A = <33% inhibition)');

Look at this molecule and give its reported NAMPT Inhibition Code. CC(=O)N(CC(C)C)c1ccc(-c2ccc(C(=O)NCc3cccnc3)cc2)cc1 [Compound I-402]
C (C = ≥66% inhibition)

Repeat with CCN(C(C)=O)c1ccc(-c2ccc(C(=O)NCc3cccnc3)cn2)cc1Cl [Compound I-652]
C (C = ≥66% inhibition)

Repeat with CC(=O)N(CC1CC1)c1ccc(-c2ccc(C(=O)NCc3ccncc3)cn2)cc1Cl [Compound I-676]
A (A = <33% inhibition)
